Assay: gradient 5% acetonitrile 3 min, to 50% in 2 min, to 85% in 15 min, held 3 min, 100 µL/min
Conditions: column: Zorbax Extend-C18 2.1 x 50 mm; eluents: water / acetonitrile, 0.1% formic acid
readout-type: RP-LC retention time (s)

A = Clc1ccc(-c2ccc(CNCC3CCCO3)o2)c(Cl)c1 (configuration not stated)
B = CC1CCN(S(=O)(=O)c2cc(C(=O)Nc3ccc(F)c(Cl)c3)n(C)c2)CC1
Task item: Form field 'greater RP-LC retention time' accepts A or B ; which applies? # answer = label of selected item
Reply: B

P = Cc1nnsc1C(=O)N1CCc2nc(NC(=O)c3ccco3)sc2C1
Q = O=C([C@@H]1C[C@H](F)CN1S(=O)(=O)Cc1ccccc1Cl)N1CCc2ccccc2C1
Task item: Compare the recorded RP-LC retention time of P and Q ; state which is larger. Answer = label.
Reply: Q
(Q: 986 s, P: 636 s)

====

Assay: gradient 5% acetonitrile 3 min, to 50% in 2 min, to 85% in 15 min, held 3 min, 100 µL/min
Conditions: column: Zorbax Extend-C18 2.1 x 50 mm; eluents: water / acetonitrile, 0.1% formic acid
readout-type: RP-LC retention time (s)

>  <molecule>
CCCS(=O)(=O)Nc1ccc(F)c(C(=O)c2c[nH]c3ncc(-c4ccc(Cl)cc4)cc23)c1F

>  <readout-type>
RP-LC retention time

>  <quantitative-result>
1130

$$$$
>  <molecule>
CCn1cc(C)c(C(=O)O)c1CC(=O)NCc1cccnc1

>  <readout-type>
RP-LC retention time

>  <quantitative-result>
584

$$$$
>  <molecule>
Cc1ccc(Cn2c(=O)n(CCNC(=O)c3cccs3)c3ncccc32)cc1

>  <readout-type>
RP-LC retention time

>  <quantitative-result>
808

$$$$
>  <molecule>
CCC(C(=O)NCc1cccc(OC)c1OC)n1sc2ccccc2c1=O (stereo not drawn)

>  <readout-type>
RP-LC retention time

>  <quantitative-result>
988

$$$$
>  <molecule>
COc1ccc(C2=Nc3ccccc3N(CC(=O)Nc3ccc4c(c3)OCO4)C(=O)C2)cc1

>  <readout-type>
RP-LC retention time

>  <quantitative-result>
895

$$$$
>  <molecule>
Cc1noc(-c2cc(=O)n(CC(=O)Nc3ccc(Cl)cc3)c3ccccc23)n1

>  <readout-type>
RP-LC retention time

>  <quantitative-result>
915

$$$$
>  <molecule>
Cc1cnc(-c2ccccc2)n1C1CCCN(S(=O)(=O)c2ccc3c(c2)OCCO3)C1 (stereo not drawn)

>  <readout-type>
RP-LC retention time

>  <quantitative-result>
712

$$$$
>  <molecule>
CCOc1ccc(C(=O)N2CCN(c3cc(-c4ccc(Cl)cc4)[nH]n3)CC2)cc1OCC

>  <readout-type>
RP-LC retention time

>  <quantitative-result>
916

$$$$
>  <molecule>
CN(C)C(=O)c1n[nH]c2c1CN(C(=O)c1cccc(C(F)(F)F)c1)CC2

>  <readout-type>
RP-LC retention time

>  <quantitative-result>
673

$$$$
>  <molecule>
Cc1ccc(Nc2c(-c3nc(C)no3)cnc3nc(C)ccc23)c(F)c1

>  <readout-type>
RP-LC retention time

>  <quantitative-result>
793

$$$$
>  <molecule>
O=C(C1CC(=O)N(c2n[nH]c3cccc(F)c23)C1)N1CCC(Cc2ccccc2)CC1 (stereo not drawn)

>  <readout-type>
RP-LC retention time

>  <quantitative-result>
882

$$$$
>  <molecule>
CCn1cc(-c2ccc(Cl)cc2)cc1C(=O)NCCCN1CCCC1=O

>  <readout-type>
RP-LC retention time

>  <quantitative-result>
879

$$$$
>  <molecule>
O=C(N[C@H]1C[C@@H]2C[C@H]1N(C(=O)c1ccccc1Cl)C2)c1ccccc1

>  <readout-type>
RP-LC retention time

>  <quantitative-result>
717

$$$$
>  <molecule>
O=C(Nc1ccc(OCc2nnc(-c3ccccc3)o2)cc1)c1cccnc1

>  <readout-type>
RP-LC retention time

>  <quantitative-result>
743

$$$$
>  <molecule>
COc1cccc(Cn2c(C(=O)N3CCC(C(=O)NC4CCCCCC4)CC3)cc3ccsc32)c1

>  <readout-type>
RP-LC retention time

>  <quantitative-result>
1070

$$$$
>  <molecule>
COCCNCc1ccc(-c2cc(Cl)cc(Cl)c2)o1

>  <readout-type>
RP-LC retention time

>  <quantitative-result>
722

$$$$
>  <molecule>
COc1ccc(NC(=O)N2C[C@@H](F)C[C@H]2C(=O)N2CCCCC2)cc1OC

>  <readout-type>
RP-LC retention time

>  <quantitative-result>
643

$$$$
>  <molecule>
CCC(=O)N1CCc2c(sc3ncnc(NCc4ccccc4)c23)C1

>  <readout-type>
RP-LC retention time

>  <quantitative-result>
790

$$$$
>  <molecule>
CC1CCc2nn(CC(=O)NCCN3CCCCCC3)cc2C1 (stereo not drawn)

>  <readout-type>
RP-LC retention time

>  <quantitative-result>
605

$$$$
>  <molecule>
N#Cc1cccc(NC(=O)Cn2cccc2-c2nc(-c3ccc4c(c3)OCO4)no2)c1

>  <readout-type>
RP-LC retention time

>  <quantitative-result>
924

$$$$
>  <molecule>
CC(=O)c1ccc(NS(=O)(=O)c2ccc(-c3c(C)noc3C)cc2)cc1

>  <readout-type>
RP-LC retention time

>  <quantitative-result>
813

$$$$
>  <molecule>
Cc1ccc2c(c1)C(O)(CC(=O)c1ccccc1)C(=O)N2 (stereo not drawn)

>  <readout-type>
RP-LC retention time

>  <quantitative-result>
666

$$$$
>  <molecule>
COc1cccc(S(=O)(=O)N2CCC(c3nc(C(=O)N4CCOCC4)c(C)o3)CC2)c1

>  <readout-type>
RP-LC retention time

>  <quantitative-result>
794

$$$$
